EXPERIMENT_NOTES: gradient 5% acetonitrile 3 min, to 50% in 2 min, to 85% in 15 min, held 3 min, 100 µL/min
STATED_CONDITIONS: column: Zorbax Extend-C18 2.1 x 50 mm; eluents: water / acetonitrile, 0.1% formic acid
Below: a set of entries, each annotated with reported RP-LC retention time.
# value in s; strip the unit string

The examples below pair each entry with its known result.
{"MOLECULE": "O=C(NCc1cc(F)ccc1F)C1CCN(C(=O)c2ncn3c2COC(c2ccc(F)cc2)C3)CC1 (stereo not given)", "ENDPOINT_RESULT": 802}
{"MOLECULE": "CSc1ccc(NC(=O)C2CCCN(c3cnc4nc(C)c(C)nc4c3)C2)cc1 (stereo not given)", "ENDPOINT_RESULT": 819}
{"MOLECULE": "O=C(c1nccc2ccccc12)N1CCC(Nc2ncnc3c2CCC3)C1 (stereo not given)", "ENDPOINT_RESULT": 537}
{"MOLECULE": "COc1cccc(N2CCN(C(=O)CN3CCN(Cc4ccc(C)cc4)C(=O)C3=O)CC2)c1", "ENDPOINT_RESULT": 772}
{"MOLECULE": "O=S(=O)(NCC(O)c1ccc(C(F)(F)F)cc1)c1ccc2c(c1)OCCO2 (stereo not given)", "ENDPOINT_RESULT": 817}
{"MOLECULE": "CCc1ccc(-c2noc(Cn3c(=O)n(-c4ccccc4C)c(=O)c4sccc43)n2)cc1", "ENDPOINT_RESULT": 1140}
{"MOLECULE": "Cn1c(=O)c(N2CCCC(C(=O)N3CCCCCC3)C2)nc2cccnc21 (stereo not given)", "ENDPOINT_RESULT": 918}
{"MOLECULE": "O=C1C(c2cccnc2)N(Cc2ccco2)C(=O)CN1c1ccccc1 (stereo not given)", "ENDPOINT_RESULT": 619}
{"MOLECULE": "CCCNC(=O)Cc1cn(CC)c2ncccc12", "ENDPOINT_RESULT": 611}
{"MOLECULE": "CCOC(=O)C(C#N)C(=N)C1C(=O)OC2CCCCC21 (stereo not given)", "ENDPOINT_RESULT": 839}

Task item: Indicate the recorded RP-LC retention time value for this molecule: O=C(CCc1ccc2nc[nH]c2c1)Nc1ccc2c(c1)OCCO2
Reply: 591

Just for reference, the METLIN SMRT retention time set (Domingo-Almenara et al. 2019) is where these values come from.
